Cited source for all entries: the supplement of paper PMC7877785

assay: self-splicing fitness, log relative to wild type (ln ratio); higher = more splicing; Tetrahymena group I intron in knt gene, E. coli kanamycin selection, DiMSum; sequences stand for … in CUCUCU…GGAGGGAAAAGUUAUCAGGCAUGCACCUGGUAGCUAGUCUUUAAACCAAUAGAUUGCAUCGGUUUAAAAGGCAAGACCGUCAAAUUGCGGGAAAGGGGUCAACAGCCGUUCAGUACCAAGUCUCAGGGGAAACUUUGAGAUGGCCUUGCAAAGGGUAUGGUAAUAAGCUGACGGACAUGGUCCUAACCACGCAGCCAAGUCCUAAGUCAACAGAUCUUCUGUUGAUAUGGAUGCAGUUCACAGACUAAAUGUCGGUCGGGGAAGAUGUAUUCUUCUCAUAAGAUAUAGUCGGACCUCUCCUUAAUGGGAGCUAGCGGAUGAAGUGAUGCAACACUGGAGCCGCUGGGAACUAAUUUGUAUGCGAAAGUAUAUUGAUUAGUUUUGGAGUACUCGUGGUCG; details: 30 °C;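 also: selection with 25 µg/mL kanamycin versus none on LB agar overnight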
Note to self: values exactly at -2 are Yes. So self-splicing fitness (ln) at or above -2 is Yes, below is No.

> print(dat)
                residues  discrete.label
 1  CCCUAGCAAUAUUACGAUUU              No
 2  GAGUAGCAAUAUUACGAUUG              No
 3  CCCGAGCAAUAUUACGAGUU              No
 4  GUCCAGCAAUAUUACGAACA             Yes
 5  AUCUAGCAAUAUUACGCAGA              No
 6  GCGUAGCAAUAUUACGCUUU              No
 7  GCCAAGCAAUAUUACGCUUG              No
 8  UUACAGCAAUAUUACGCUGU              No
 9  GUCAAGCAAUAUUACGUUUA             Yes
10  UCAUAGCAAUAUUACGGGCA             Yes
11  ACCUAGCAAUAUUACGAGAU              No
12  CGCGAGCAAUAUUACGUCUC              No
13  GCUUAGCAAUAUUACGUCUG              No
14  UAUAAGCAAUAUUACGGCCA             Yes
15  GAAUAGCAAUAUUACGAAAC             Yes

====

test: self-splicing fitness, log relative to wild type (ln ratio); higher = more splicing; Tetrahymena group I intron in knt gene, E. coli kanamycin selection, DiMSum; sequences stand for … in CUCUCU…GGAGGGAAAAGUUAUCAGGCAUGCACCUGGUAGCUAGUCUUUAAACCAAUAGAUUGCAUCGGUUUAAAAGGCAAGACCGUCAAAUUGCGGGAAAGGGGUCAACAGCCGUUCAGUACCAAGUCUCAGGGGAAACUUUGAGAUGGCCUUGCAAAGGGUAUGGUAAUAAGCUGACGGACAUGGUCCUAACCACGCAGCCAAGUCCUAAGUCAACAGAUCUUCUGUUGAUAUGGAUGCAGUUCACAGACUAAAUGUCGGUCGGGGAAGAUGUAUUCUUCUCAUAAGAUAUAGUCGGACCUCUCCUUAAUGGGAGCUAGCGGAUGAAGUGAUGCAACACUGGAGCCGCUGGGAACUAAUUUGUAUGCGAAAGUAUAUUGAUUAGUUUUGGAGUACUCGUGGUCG; conditions: 30 °C
self-splicing fitness (ln) vs -2: at or above is rule met, below is rule not met.

> print(dat)
                residues  discrete.label
 1  ACUAAGCAAUAUUACGGUCC    rule not met
 2  CCGUAGCAAUAUUACGGUGC    rule not met
 3  CAUCAGCAAUAUUACGAUAC    rule not met
 4  AUGAAGCAAUAUUACGAGUA    rule not met
 5  CGAUAGCAAUAUUACGUGGG    rule not met
 6  GCCAAGCAAUAUUACGGAUC        rule met
 7  GACCAGCAAUAUUACGUUAG    rule not met
 8  GUACAGCAAUAUUACGCAGG    rule not met
 9  CGAAAGCAAUAUUACGGAUA    rule not met
10  UCAGAGCAAUAUUACGUCCA    rule not met
11  AACGAGCAAUAUUACGCGGA    rule not met
12  GCAGAGCAAUAUUACGACUC        rule met
13  GGACAGCAAUAUUACGAAAC        rule met
14  CCAUAGCAAUAUUACGUACU    rule not met
15  GGGCAGCAAUAUUACGUUUU        rule met
16  CCAAAGCAAUAUUACGCGAU    rule not met
17  AUAGAGCAAUAUUACGACGU        rule met
18  GCAAAGCAAUAUUACGUUAC    rule not met
19  CUAAAGCAAUAUUACGACCA    rule not met
20  CUUGAGCAAUAUUACGGAUG        rule met
21  AUGCAGCAAUAUUACGCCUG    rule not met
22  UAAGAGCAAUAUUACGUGGU    rule not met
23  GGCGAGCAAUAUUACGUUUG    rule not met
24  AAUAAGCAAUAUUACGGUCU        rule met
25  CGGGAGCAAUAUUACGUCCU    rule not met
26  ACCAAGCAAUAUUACGCCGU    rule not met
27  UACAAGCAAUAUUACGUUCC    rule not met
28  CCCGAGCAAUAUUACGGUAC    rule not met
29  GUCGAGCAAUAUUACGUUGG        rule met
30  GCCAAGCAAUAUUACGCCAA    rule not met
31  AUUGAGCAAUAUUACGUCAU    rule not met
32  GCACAGCAAUAUUACGACCA        rule met
33  UACAAGCAAUAUUACGACAC    rule not met
34  AUAGAGCAAUAUUACGCCGU        rule met
35  CCGGAGCAAUAUUACGAGGG    rule not met
36  UACGAGCAAUAUUACGAGAA    rule not met
37  GAGGAGCAAUAUUACGUCAA    rule not met
38  GCGAAGCAAUAUUACGUUGA    rule not met
39  CGACAGCAAUAUUACGUUGG    rule not met
40  UAGUAGCAAUAUUACGGUUG        rule met
41  AUACAGCAAUAUUACGGCGC        rule met
42  GAUCAGCAAUAUUACGGAGA    rule not met
43  CAGUAGCAAUAUUACGCUUC    rule not met
44  GAGUAGCAAUAUUACGCAAA    rule not met
45  CGUAAGCAAUAUUACGUUCC    rule not met
46  ACGCAGCAAUAUUACGUAUU    rule not met
47  UCGAAGCAAUAUUACGGCGG        rule met
48  AGCGAGCAAUAUUACGAUUA    rule not met
49  CAAUAGCAAUAUUACGCAUA    rule not met
50  CUAGAGCAAUAUUACGGGAA    rule not met
51  UGAGAGCAAUAUUACGCUGG    rule not met
52  CUCCAGCAAUAUUACGACGA    rule not met
53  AGAUAGCAAUAUUACGCCCU        rule met
54  UUCGAGCAAUAUUACGAUGC        rule met
55  UGUAAGCAAUAUUACGCUCG        rule met
56  AGUUAGCAAUAUUACGUCUU        rule met
57  CACAAGCAAUAUUACGUGCC    rule not met
58  UUGAAGCAAUAUUACGUUCG        rule met
59  AAUUAGCAAUAUUACGGAGG    rule not met
60  CACCAGCAAUAUUACGCUAC    rule not met
61  AGCUAGCAAUAUUACGUAUU    rule not met
62  GAUUAGCAAUAUUACGAUUU        rule met
63  GGCGAGCAAUAUUACGGGCG        rule met
64  CUCUAGCAAUAUUACGGUGA    rule not met
65  CUACAGCAAUAUUACGUAUA    rule not met
66  GAAUAGCAAUAUUACGGCGA        rule met

====

assay: self-splicing fitness, log relative to wild type (ln ratio); higher = more splicing; Tetrahymena group I intron in knt gene, E. coli kanamycin selection, DiMSum; sequences stand for … in CUCUCU…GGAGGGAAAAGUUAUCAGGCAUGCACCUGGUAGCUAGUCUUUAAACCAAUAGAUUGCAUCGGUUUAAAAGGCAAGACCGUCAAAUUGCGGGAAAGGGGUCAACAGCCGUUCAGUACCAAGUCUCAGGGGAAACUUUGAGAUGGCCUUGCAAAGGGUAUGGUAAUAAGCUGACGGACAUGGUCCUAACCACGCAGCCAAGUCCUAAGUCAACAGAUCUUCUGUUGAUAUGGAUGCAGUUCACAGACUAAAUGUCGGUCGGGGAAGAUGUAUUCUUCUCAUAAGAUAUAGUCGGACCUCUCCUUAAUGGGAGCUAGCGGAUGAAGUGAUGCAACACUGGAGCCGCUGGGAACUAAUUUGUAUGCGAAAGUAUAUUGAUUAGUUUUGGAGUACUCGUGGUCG; conditions: 30 °C
test readout: self-splicing fitness (ln)

> print(dat)
               residues   result
1  UCCCAGCAAUAUUACGAGCG    -3.32
2  UACAAGCAAUAUUACGGCCG  -0.0815
3  CACGAGCAAUAUUACGUCUA     -1.3
4  UAUAAGCAAUAUUACGGGGC    -2.29
5  UACGAGCAAUAUUACGUGGG    -3.25
6  GAGGAGCAAUAUUACGCUCG    -1.49
7  GACCAGCAAUAUUACGUACG    -1.34
8  CGUAAGCAAUAUUACGAAAA    -3.49
